Assay system: p-38 MAP kinase (Homo sapiens)
Sequence (Q16539 whole entry): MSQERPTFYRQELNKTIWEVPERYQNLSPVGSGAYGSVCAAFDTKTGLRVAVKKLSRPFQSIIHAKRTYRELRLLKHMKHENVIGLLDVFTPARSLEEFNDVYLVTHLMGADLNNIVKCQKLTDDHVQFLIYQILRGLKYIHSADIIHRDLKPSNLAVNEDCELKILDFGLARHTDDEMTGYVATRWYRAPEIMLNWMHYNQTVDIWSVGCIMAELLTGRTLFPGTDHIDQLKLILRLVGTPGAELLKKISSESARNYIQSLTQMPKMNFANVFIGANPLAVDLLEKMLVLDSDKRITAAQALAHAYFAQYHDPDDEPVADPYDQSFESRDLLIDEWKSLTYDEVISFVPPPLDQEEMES
Run description: Inhibition of p-38 (MAP) kinase, in vitro assay (transfer of γ-phosphate from γ-33P-ATP to Myelin Basic Protein)
Stated conditions: phosphorylated recombinant p38 MAP kinase; substrate MBP and γ-33P-ATP; 30° C.; read-out: IC50, the concentration causing 50% inhibition of the p-38 enzyme
pIC50: −log10 of the molar value.
Label rule, in plain words: pIC50 of 8 and up is Condition met, under 8 is Condition not met.

Consider the following illustrative entries.
Ask: # check: pIC50 of CS(=O)(=O)N1CCC(Nc2ncc3cc(-c4ccccc4Cl)c4nccn4c3n2)CC1 [Compound 3] is greater than or equal to 8
Result: Condition met

Ask: # check: pIC50 of O[C@H]1CC[C@H](Nc2ncc3c(n2)N2CCN=C2N(c2ccccc2Cl)C3)CC1 [Compound 12] is greater than or equal to 8
Result: Condition not met

Ask: # check: pIC50 of CC(C)Nc1ncc2cc(-c3ccccc3Cl)c3nccn3c2n1 [Compound 7] is greater than or equal to 8
Result: Condition met

Ask: # check: pIC50 of O[C@H]1CC[C@H](Nc2ncc3c(n2)N2CCN=C2C(c2ccccc2Cl)=C3)CC1 [Compound 13] is greater than or equal to 8
Result: Condition not met

Now examine the next entry.
Ask: # check: pIC50 of CC(C)(CO)Nc1ncc2cc(-c3ccccc3Cl)c3nccn3c2n1 [Compound 6] is greater than or equal to 8
Result: Condition not met

* * *

Structures can show the parent of a compound that is named as a salt.
Endpoint: melting point

Reference set (4 entries):
Ask: Quote melting point reported for CC(C)Nc1ncc2cc(-c3ccccc3Cl)c3nccn3c2n1 (as salt: HCl) please.
Result: 210 to 212.5 °C

Ask: Quote melting point reported for O=S1(=O)CCC(Nc2ncc3cc(-c4ccccc4Cl)c4nccn4c3n2)CC1 (as salt: HCl) please.
Result: 221.8 to 226.8 °C

Ask: Quote melting point reported for Clc1ccccc1-c1cc2cnc(NC3CCOCC3)nc2n2ccnc12 (as salt: HCl) please.
Result: 211 to 214 °C

Ask: Quote melting point reported for O[C@H]1CC[C@H](Nc2ncc3cc(-c4ccccc4Cl)c4nccn4c3n2)CC1 please.
Result: 116 to 119 °C

API: the following record is the query input.
Ask: Quote melting point reported for O[C@H]1CC[C@H](Nc2ncc3c(n2)N2CCN=C2C(c2ccccc2Cl)=C3)CC1 please.
Result: 169.3 to 175.8 °C

* * *

Here the recorded melting point is given for each entry.
Structures can show the parent of a compound that is named as a salt.

Reference set (3 entries):
Ask: Quote melting point reported for CS(=O)(=O)N1CCC(Nc2ncc3cc(-c4ccccc4Cl)c4nccn4c3n2)CC1 (as salt: HCl) please.
Result: 188 to 194 °C

Ask: Quote melting point reported for Fc1ccc(CNc2ncc3cc(-c4ccccc4Cl)c4nccn4c3n2)cc1 (as salt: HCl) please.
Result: 178 to 180 °C

Ask: Quote melting point reported for CC(C)(CO)Nc1ncc2cc(-c3ccccc3Cl)c3nccn3c2n1 (as salt: HCl) please.
Result: 190.8 to 194.3 °C

API: the following record is the query input.
Ask: Quote melting point reported for CS(=O)(=O)CCNc1ncc2cc(-c3ccccc3Cl)c3nccn3c2n1 (as salt: HCl) please.
Result: 172.2 to 176 °C
